- System: T1, human ferroportin (SLC40A1) fused in frame with GFP, stably expressed in HEK293 cells (human, UniProt Q9NP59 1-571)
- T1 sequence (looked up): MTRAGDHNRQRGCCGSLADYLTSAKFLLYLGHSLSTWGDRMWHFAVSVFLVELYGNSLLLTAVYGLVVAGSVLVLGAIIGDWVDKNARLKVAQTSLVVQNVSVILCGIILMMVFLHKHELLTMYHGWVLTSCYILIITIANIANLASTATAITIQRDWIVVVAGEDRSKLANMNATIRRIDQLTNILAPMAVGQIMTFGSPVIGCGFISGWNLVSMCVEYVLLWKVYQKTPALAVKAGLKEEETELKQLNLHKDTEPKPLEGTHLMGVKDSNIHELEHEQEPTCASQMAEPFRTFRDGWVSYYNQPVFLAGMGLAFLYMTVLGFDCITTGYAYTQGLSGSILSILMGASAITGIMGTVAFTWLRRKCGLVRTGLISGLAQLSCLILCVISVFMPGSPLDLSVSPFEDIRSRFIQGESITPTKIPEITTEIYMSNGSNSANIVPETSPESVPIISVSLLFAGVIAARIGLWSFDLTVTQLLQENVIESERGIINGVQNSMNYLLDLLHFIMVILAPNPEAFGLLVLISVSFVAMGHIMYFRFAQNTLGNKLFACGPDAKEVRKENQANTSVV
- Test Method Notes: cell-based or functional assay
Side chains are listed from the residue outwards. * marks the point of attachment. Palmitoyl = CCCCCCCCCCCCCCCC(=O)*; Isovaleryl = CC(C)CC(=O)*; dapa = not defined here
Test Readout: Potency EC50 (nM)

DTHFPCIKFKPRSKGWVC (N-terminal isovaleric acid; K10(mysteric acid); C-terminal NH2) [Compound 247] | 7
Isovaleryl-DTHFPCIKFEPRSK([dapa-Palmitoyl])GCK-NH2 (not fully specified (bridges); cysteine pairing not given here; reading uncertain) [Compound 228] | 7
